Listed molecules paired with reported TGI
Tested on: NCI/ADR-RES ovarian
method-description: NCI tumour cell line growth inhibition, 48 h
readout-type: TGI

molecule=Cc1ccc(/C(O)=C/C(=O)C(=O)NN=C(c2ccccc2)c2ccccc2)cc1 data_value="> 100 µM"
molecule="CCOC(=O)c1ccc(C(=O)C(C(C)=O)C(=O)OC(C)(C)C)[nH]1 (stereo unspecified)" data_value="> 100 µM"
molecule="OC(c1ccc(-c2ccccc2)cc1)C(F)(F)c1nc2ccccc2o1 (stereo unspecified)" data_value="> 100 µM"
molecule="CC1(O)OC(=O)C2=C1CCC1C2CCC2(C)C(O)CCC12 (stereo unspecified)" data_value="> 100 µM"
molecule=O=C1NC(=O)C(c2cccc(Cl)c2)=C1Nc1ccc(O)c(Cl)c1 data_value="> 25 µM"
molecule=BrCc1ccc(CBr)cc1 data_value="> 21.1 µM"
molecule=CCOc1ccc(-n2nnc3c(N)nc(N)nc32)cc1 data_value="> 100 µM"
molecule="C/C(=C/CC[C@]1(CO)CC[C@]2(CO)[C@H](CC[C@@H]3[C@@]4(C)CC[C@H](OC5OCC(O)C(O)C5OC5OC(CO)C(O)C(O)C5O)C(C)(C)[C@@H]4CC[C@]32C)[C@H]1O)CO (stereo partly specified)" data_value="> 100 µM"
molecule="CC1(C)OC2C(=O)C=C(COCc3ccccc3)C2O1 (stereo unspecified)" data_value="> 100 µM"
molecule="CCC1(O)C(=O)OCc2c1cc1n(c2=O)Cc2cc3cc(N)ccc3nc2-1 (stereo unspecified)" data_value="0.266 µM"
molecule="CC1=CC(=O)C(O)C2(C)C1CC(O)C13COC4(C)C(OC(=O)C41)C(O)C23 (stereo unspecified)" data_value="61.3 µM"
molecule=COc1ccc(C(=O)N2c3ccccc3Sc3ccccc32)c(OC)c1 data_value="42.1 µM"
molecule="CC(C)(CC(O)C#N)/[N+]([O-])=[N+](\\[O-])C(C)(C)CC(O)C#N (stereo unspecified)" data_value="> 100 µM"
molecule="CN(CCCCCl)P(=O)(OCCS(=O)(=O)CC(NC(=O)CCC(N)C(=O)O)C(=O)NC(C(=O)O)c1ccccc1)OCC1OC(n2cc(F)c(=O)[nH]c2=O)CC1O (stereo unspecified)" data_value="> 65.1 µM"
molecule=COc1ccc(/C=N/NC(=O)Cn2c(-c3ccc(S(C)(=O)=O)cc3)nc3cc(Cl)ccc32)cc1 data_value="> 50 µM"
molecule=O=C(O)COc1c(Cl)cc(Cl)c2cccnc12 data_value="> 100 µM"
molecule="OC1(c2ccccc2)CSC2=Nc3ccccc3C3CCN1N23 (stereo unspecified)" data_value="63.9 µM"
molecule=CC(C)CN=C(N)N=C(N)N data_value="> 100 µM"
molecule=O=C(Oc1cccnc1)c1ccsc1Nc1ccnc(C(F)(F)F)c1 data_value="> 100 µM"
molecule="COc1ccc(-n2cnc3c(NC(CCSC)C(=O)O)ncnc32)cc1 (stereo unspecified)" data_value="> 100 µM"
molecule=CC(=O)Oc1ccccc1C(=O)/C=C/c1cccc([N+](=O)[O-])c1 data_value="18.7 µM"
molecule="CN(C)CC1CCCC1=O (stereo unspecified)" data_value="55.7 µM"
molecule=CC(=O)c1c(C(F)(F)F)n([O-])c2ccc(C)cc2[n+]1=O data_value="> 35.5 µM"
molecule=Cc1nc2ccccc2c(/C=C/c2ccc(Br)cc2)c1C(=O)/C=C/c1ccccc1 data_value="5.31 µM"
molecule=O=C1NC(=S)N(c2ccccc2)C1=O data_value="> 100 µM"
molecule=Cc1ccc(S(=O)(=O)NCCSCCSCCNS(=O)(=O)c2ccc(C)cc2)cc1 data_value="> 100 µM"
molecule=CN(C)CCCN1c2ccccc2CCc2ccc([N+](=O)[O-])cc21 data_value="42.1 µM"
molecule="COc1ccc(C2[C@@H](Cl)C(=O)N2c2cc(OC)c(OC)c(OC)c2)cc1Cl (stereo partly specified)" data_value="> 100 µM"
molecule=Cc1ccc2c(=O)cc(-c3ccc(-c4ccccc4)s3)[nH]c2n1 data_value="> 100 µM"
molecule=N#Cc1c(N)[nH]c2ccc(Sc3ccccc3)cc12 data_value="10.2 µM"
molecule=CC1(C)N=C(N)N=C(N)N1c1ccc(CCCCc2ccc(S(=O)(=O)F)cc2)c(Cl)c1 data_value="> 100 µM"
molecule="COc1ccc2cc(-c3c(-c4ccncc4)nc(-c4ccc(S(C)=O)cc4)n3C)ccc2c1 (stereo unspecified)" data_value="> 25 µM"
molecule=CCNC1=C(NC(=O)CC)C(=O)c2ccccc2C1=O data_value="> 100 µM"
molecule=O=c1onc2c3ccccc3ncn12 data_value="> 100 µM"
molecule=N#CN1CC[C@H](C(=O)Nc2ncc(-c3ccncc3)s2)C1 data_value="> 100 µM"
molecule=COC(=O)c1c(OC(C)=O)ccc2c1c1c(OC(C)=O)c3ccccc3c(OC(C)=O)c1n2Cc1ccccc1 data_value="46.6 µM"
